// data source = the supplement of paper PMC12350171

growth AUC normalised to DMSO control values, listed per item
- System: Yersinia pseudotuberculosis
- Procedure Summary: growth AUC normalised to DMSO control (fraction of control); higher = less growth inhibition, active = hit call of the paper
- Measurement Conditions: 20 µM
Where a name gives a salt, the structure may show the parent alone.
Recorded Metric: growth AUC normalised to DMSO control

>>> result("C[C@]12CC[C@H](O)C[C@H]1CC[C@@H]1[C@@H]2CC[C@]2(C)[C@@H](C3=CC(=O)OC3)CC[C@]12O")
"0.995 (inactive)"
>>> result("CC(C)CC(N(C)C)C1(c2ccc(Cl)cc2)CCC1 (centres undefined) [Sibutramine hydrochloride]")
"1 (inactive)"
>>> result("C[N+]12CCC(CC1)C(OC(=O)C(O)(c1ccccc1)c1ccccc1)C2 (centres undefined) [Clidinium bromide]")
"0.999 (inactive)"
>>> result("CC(=O)[C@H]1CC[C@H]2[C@@H]3CC[C@H]4C[C@H](O)CC[C@]4(C)[C@H]3C(=O)C[C@]12C")
"1.01 (inactive)"
>>> result("COc1cc([C@@H]2c3cc4c(cc3[C@H](O)[C@H]3COC(=O)[C@H]23)OCO4)cc(OC)c1OC")
"1.01 (inactive)"
>>> result("O=[N+]([O-])O[C@@H]1CO[C@H]2[C@@H]1OC[C@@H]2O [Isosorbide mononitrate]")
"1 (inactive)"
>>> result("C[C@]12CC[C@H](O)C[C@H]1CC[C@@H]1[C@@H]2C[C@@H](O)[C@]2(C)[C@@H](C3=CC(=O)OC3)CC[C@]12O")
"0.998 (inactive)"
>>> result("C[C@]12CCC(=O)C(O)=C1CC[C@@H]1[C@@H]2CC[C@]2(C)C(=O)CC[C@@H]12")
"0.997 (inactive)"
>>> result("C=CCC1(CC(C)C)C(=O)NC(=O)NC1=O")
"1 (inactive)"
>>> result("CN[C@@H]1[C@@H](O)[C@@H](O[C@@H]2[C@@H](O)[C@H](O[C@H]3O[C@H](CN)CC[C@H]3N)[C@@H](N)C[C@H]2N)OC[C@]1(C)O.CN[C@@H]1[C@@H](O)[C@@H](O[C@@H]2[C@@H](O)[C@H](O[C@H]3O[C@H]([C@@H](C)N)CC[C@H]3N)[C@@H](N)C[C@H]2N)OC[C@]1(C)O.CN[C@@H]1[C@@H](O)[C@@H](O[C@@H]2[C@@H](O)[C@H](O[C@H]3O[C@H]([C@@H](C)NC)CC[C@H]3N)[C@@H](N)C[C@H]2N)OC[C@]1(C)O [Gentamicine sulfate]")
"1.02 (inactive)"
>>> result("CCOC(=O)c1cncn1[C@H](C)c1ccccc1 [Etomidate]")
"0.984 (inactive)"
>>> result("C=C1C[C@@H]2[C@H](CC[C@]3(C)C(=O)CC[C@@H]23)[C@@]2(C)C=CC(=O)C=C12")
"1 (inactive)"
>>> result("CNCC(O)c1ccc(O)cc1 (centres undefined) [Synephrine]")
"1.01 (inactive)"
>>> result("O=c1[nH]c2ccccc2n1C1CCN(CCCC(c2ccc(F)cc2)c2ccc(F)cc2)CC1 [Pimozide]")
"1.02 (inactive)"
>>> result("C=C(C)[C@@H]1[C@H]2OC(=O)[C@@H]1[C@]1(O)C[C@H]3O[C@]34C(=O)O[C@H]2[C@]14C")
"0.997 (inactive)"
>>> result("NCC1(CC(=O)O)CCCCC1")
"1.01 (inactive)"
>>> result("O=C1CC[C@@]2(O)[C@H]3Cc4ccc(O)c5c4[C@@]2(CCN3CC2CC2)[C@H]1O5 [Naltrexone hydrochloride dihydrate]")
"1.01 (inactive)"
>>> result("CN1[C@@H]2CC[C@H]1C[C@@H](OC(=O)[C@H](CO)c1ccccc1)C2")
"1.01 (inactive)"
>>> result("C#C[C@]1(O)CC[C@H]2[C@@H]3CCC4=CC(=O)CC[C@]4(C)[C@H]3CC[C@@]21C")
"1 (inactive)"
